Every entry's value here was drawn from the C3SDB collision cross section collection.

Details: [M+Na]+; instrument: DT; single field
Classify as follows. Reported collision cross section (N2) greater than or equal to 300 Å²: 1. Reported collision cross section (N2) below: -1.

CCCC/C=C\C/C=C\CCCCCCCC(=O)O[C@@H](COC(=O)CCCCCCC/C=C\C/C=C\CCCCC)COC(=O)CCCCCCCCCCCCCCC 1
CCCCC/C=C\C/C=C\CCCCCCCCCCCC(=O)OC[C@@H](COC(=O)CCCCCCCCCCC)OC(=O)CCCCCCCCCCC/C=C\C/C=C\CCCCC 1
CC/C=C\C/C=C\C/C=C\C/C=C\C/C=C\CCCCCC(=O)OC[C@@H](COC(=O)CCCCCCCCCCCCCCCCC)OC(=O)CCCCCCC/C=C\C/C=C\CCCCC 1
CCCCCCC/C=C\CCCCCCCC(=O)OC[C@H](COC(=O)CCCCCCCCC/C=C\CCCCCCCCCC)OC(=O)CCCCCCC/C=C\CCCCCCC 1

IN: Quick check: does CCCCCCCCCCCCCCCCCCCCC(=O)O[C@H](COC(=O)CCCCCCCCCCC)COP(=O)([O-])OCC[N+](C)(C)C have collision cross section (N2) greater than or equal to 300 Å²?
OUT: -1

IN: Identify whether the reported collision cross section (N2) of the following compound is 300 Å² or greater: CCCCCCCCCCCCCCCCCCCCC(=O)O[C@H](COC(=O)CCCCCCCCCCCC)COP(=O)([O-])OCC[N+](C)(C)C
OUT: -1

IN: Assess whether reported collision cross section (N2) for CCCC/C=C\CCCCCCCC(=O)OC[C@H](COP(=O)([O-])OCC[N+](C)(C)C)OC(=O)CCCCCCCCCCCCCCCCCC sits at 300 Å² or higher.
OUT: -1

----------
Overview of recorded collision cross section (N2) for various compounds
Conditions: [M+H]+; instrument: TW; Major Mix IMS/Tof Calibration Kit (Waters)
Please state the figure in Å²; there is no need to write the unit.

compound	collision cross section (N2) [Å²]
OCCOCCN1CCN(C(c2ccccc2)c2ccc(Cl)cc2)CC1 (stereo not drawn) [Hydroxyzine]	197.4

IN: Would you kindly share the measured collision cross section (N2) for CC(C)NCC(O)c1ccc(NS(C)(=O)=O)cc1 (stereo not drawn) ?
OUT: 167

IN: Requested field: collision cross section (N2). Item: O=C1Nc2ccc(Br)cc2C(c2ccccn2)=NC1O (stereo not drawn) [3-Hydroxybromazepam]
OUT: 161

IN: Query (compound): CN1CC[C@]23c4c5ccc(O)c4O[C@H]2[C@@H](O)C=C[C@H]3[C@H]1C5 ; field requested: collision cross section (N2)
OUT: 164

IN: Which collision cross section (N2) is reported for this compound? CCCCC1=NC2(CCCC2)C(=O)N1Cc1ccc(-c2ccccc2-c2nn[nH]n2)cc1
OUT: 200.8

IN: So what does the record say about collision cross section (N2) for CN(C)CCCN1c2ccccc2CCc2ccc(Cl)cc21 ?
OUT: 174.3

IN: Recorded collision cross section (N2) for COc1ccc2c(c1)c(CC(=O)O)c(C)n2C(=O)c1ccc(Cl)cc1 , please?
OUT: 179.5

IN: Param item = CC(CN(C)C)CN1c2ccccc2Sc2ccccc21 (stereo not drawn) ; retrieve measured collision cross section (N2).
OUT: 166.8

----------
Conditions: [M+H]+; instrument: TW; calibrated with polyalanine
Reported values of collision cross section (N2) for individual entries
Lab book: enter the figure in Å², no units written.

Illustrative cases are given below, each with its answer.
compound	units-label	collision cross section (N2)
C[N+](C)(C)C[C@H](O)CC(=O)[O-] [Carnitine]	Å²	130
CSC[C@H]1O[C@@H](n2cnc3c(N)ncnc32)[C@H](O)[C@@H]1O [Methylthioadenosine]	Å²	167

IN: So what does the record say about collision cross section (N2) for CC(C)(CO)[C@@H](O)C(=O)NCCC(=O)O [Pantothenic acid] ?
OUT: 145

IN: Which collision cross section (N2) is listed for O=c1[nH]c(=O)c2ncn([C@@H]3O[C@H](CO)[C@@H](O)[C@H]3O)c2[nH]1 [Xanthosine] ?
OUT: 158

IN: Which collision cross section (N2) reading was recorded for the compound NCCCC[C@H](N)C(=O)O [Lysine] ?
OUT: 127

IN: Can you share its collision cross section (N2)? I mean this compound: N[C@H]1C(O)O[C@H](CO)[C@@H](O)[C@@H]1O (some centres undefined) [Glucosamine]
OUT: 135

IN: Using the record for N[C@@H](CCC(=O)N[C@@H](CS)C(=O)NCC(=O)O)C(=O)O [glutathione] , report its collision cross section (N2).
OUT: 165

IN: I'd like to know its collision cross section (N2). The compound in question is Cc1c[nH]c(=O)[nH]c1=O [Thymine]
OUT: 115

----------
# reported collision cross section (N2); entries follow
Conditions: [M+Na]+; instrument: DT; single field, calibrated with ESI Low Concentration Tuning Mix (Agilent)
Report only the number, with the unit Å² understood.

Field: example entries. Status: answers known.
compound	collision cross section (N2) / Å²
CCCCCCCCCCCCCCCC(=O)O [PALMITATE]	173.2
CC(=O)N[C@@H](CS)C(=O)O [N-ACETYLCYSTEINE]	140.9
OC[C@H]1O[C@H](OC[C@H]2O[C@H](O[C@]3(CO)O[C@H](CO)[C@@H](O)[C@@H]3O)[C@H](O)[C@@H](O)[C@@H]2O)[C@H](O)[C@@H](O)[C@H]1O [RAFFINOSE]	208.9

IN: Endpoint output: collision cross section (N2) of Cn1cnc2c(ncn2[C@@H]2O[C@H](CO)[C@@H](O)[C@H]2O)c1=N [1-METHYLADENOSINE] . Value?
OUT: 170.7

IN: What measured collision cross section (N2) goes with NC[C@H](O)c1ccc(O)cc1 [P-OCTOPAMINE] ?
OUT: 147.3

IN: Reported collision cross section (N2), compound OC[C@H]1O[C@H](O)[C@H](O)[C@@H](O)[C@@H]1O [ALPHA-D-GLUCOSE] : ____
OUT: 146.6

IN: Find the recorded collision cross section (N2) belonging to C[C@@H]1NC(=O)N[C@@H]1CCCCCC(=O)O [DETHIOBIOTIN] and report it.
OUT: 155

----------
Consider the following molecules and their measured collision cross section (N2) readings.
Conditions: [M-H]-; instrument: TW; calibrated with phosphatidylcholines (ESI+) and phosphatidylethanolamines (ESI-), doubly charged cardiolipins calibrated with poly-DL-…

A selection of reference data follows.
molecule	collision cross section (N2)
CCCCCCCCCCCCCCCC(=O)OCC(COP(=O)(O)OCCN)OC(=O)CCCCCCCCCCCCCC (configuration not stated) [PE(31:0)]	253.95 Å²
CCCCCCCC/C=C\CCCCCCCC(=O)OC(COC(=O)CCCCCCCCCCCCCCCCC)COP(=O)(O)O (configuration not stated) [PA(36:1)]	261.81 Å²
CCCCC1CC1CCCCCCCC(=O)O[C@H](CO)COP(=O)(O)OCC(O)CO (some centres not stated) [LPG(15:1)]	206.44 Å²

IN: Requested read-out: collision cross section (N2). Entry: CCCC/C=C\CCCCCCCC(=O)O[C@H](COC(=O)CCCCCCC/C=C\CCCCCC)COP(=O)(O)OC[C@@H](O)COC(=O)CCCCCCCCCCCCCCC [AcylPG(46:2)]
OUT: 312.53 Å²

IN: Returns the measured collision cross section (N2) for the input molecule. Input: CCCCCCC1CC1CCCCCCCC(=O)O[C@H](CO)COP(=O)([O-])OCC[NH3+] (some centres not stated) [LPE(0:0/17:1)]
OUT: 207.62 Å²

IN: May I ask what collision cross section (N2) has been recorded for CCCCCC/C=C\CCCCCCCC(=O)OCC(COP(=O)(O)OCC(O)CO)OC(=O)CCCCCCC/C=C\CCCCCCCC (configuration not stated) [PG(34:2)] ?
OUT: 267.97 Å²

IN: Please give the measured collision cross section (N2) for this molecule: CCCCCC/C=C\CCCCCCCC(=O)OC[C@H](COP(=O)(O)OCCNC(=O)CCCCCCCCCCCCCCC)OC(=O)CCCCCCC/C=C\CCCCCCCCCC [AcylPE(52:2)]
OUT: 328.83 Å²

----------
Settings: [M+H]+; instrument: DT; single field
quantity: collision cross section (N2) (Å²)
Give just the number in Å²; leave the unit off.

Guide cases for collision cross section (N2), answers given:
molecule	quantity	numeric-readout
CCCCCCCCCCCCC=CC[C@@H](O)[C@H](COP(=O)([O-])OCC[N+](C)(C)C)NC(=O)CCCCCCCCCCCCCCCCCCCCC [SM(40:1)]	collision cross section (N2)	299.29
CCCCC/C=C\C/C=C\CCCCCCCCCC(=O)O[C@H](COC(=O)CCCCCCCCCCCC)COP(=O)([O-])OCC[N+](C)(C)C [PC(33:2)]	collision cross section (N2)	279.23

With those in mind, consider the next molecule.
IN: Requested field: collision cross section (N2). Item: CCCCC/C=C\CCCCCCCC(=O)O[C@H](COC(=O)CCCCCCC/C=C\CCCCCC)COP(=O)([O-])OCC[N+](C)(C)C [PC(31:2)]
OUT: 272.28
